Target: Histone acetyltransferase RTT109 (Saccharomyces cerevisiae (strain ATCC 204508 / S288c) (Baker's yeast))
Sequence (whole entry): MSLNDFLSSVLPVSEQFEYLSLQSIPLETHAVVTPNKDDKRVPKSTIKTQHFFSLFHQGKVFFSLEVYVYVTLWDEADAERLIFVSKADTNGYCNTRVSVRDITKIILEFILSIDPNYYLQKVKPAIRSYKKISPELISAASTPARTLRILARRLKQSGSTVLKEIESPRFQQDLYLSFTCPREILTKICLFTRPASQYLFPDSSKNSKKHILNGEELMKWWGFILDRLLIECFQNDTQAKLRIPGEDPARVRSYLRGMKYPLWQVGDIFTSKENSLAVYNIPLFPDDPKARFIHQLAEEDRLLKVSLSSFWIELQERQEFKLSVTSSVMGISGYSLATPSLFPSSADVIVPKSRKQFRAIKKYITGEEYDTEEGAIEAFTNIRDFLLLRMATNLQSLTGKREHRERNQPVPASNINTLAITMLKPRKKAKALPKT
Test: Inhibition of Vps75-stimulated recombinant Saccharomyces cerevisiae histone acetyltransferase Rtt109 assessed as H3K56 acetylated product at […] after 45 mins by Slot bolt inhibiton assay
The source made the active and inactive calls.
Could you please pick one outcome from this set? YES for active, NO for inactive

Previously resolved entries follow.
>  <Compound>
O=S(=O)(Nc1cc(Sc2nnnn2-c2ccccc2)c(O)c2ccccc12)c1ccccc1

>  <Classification>
YES

$$$$
>  <Compound>
[O-][Cl+3]([O-])([O-])[O-].c1ccc(C[n+]2sc(N(c3ccccc3)c3ccccc3)nc2-c2ccccc2)cc1

>  <Classification>
YES

$$$$
>  <Compound>
O=C1C=CC(=O)N1c1cc(Cl)cc(Cl)c1

>  <Classification>
YES

$$$$
>  <Compound>
O=[N+]([O-])c1ccc(Sc2nnc(-c3ccccc3)o2)c2nonc12

>  <Classification>
YES

$$$$
>  <Compound>
Cc1ccc(N2C(=O)CC(Sc3nncn3-c3ccccc3)C2=O)cc1 (stereo not given)

>  <Classification>
YES

$$$$
>  <Compound>
Cc1ccc(-c2nnc(SC3CC(=O)N(c4ccc5ccccc5c4)C3=O)[nH]2)cc1 (stereo not given)

>  <Classification>
YES

$$$$

What call does the record list for COc1cc(-c2nnc(SC3=CS(=O)(=O)c4ccccc43)o2)cc(OC)c1OC ?
YES

What call does the record list for COc1ccc(N2C(=O)CC(Sc3n[nH]c(-c4ccccc4)n3)C2=O)cc1 (stereo not given) ?
YES

What call does the record list for O=S(=O)(Nc1cc(Br)c(O)c2ccccc12)c1ccc2ccccc2c1 ?
YES

What call does the record list for [Br-].c1ccc(CNc2nc(-c3ccccc3)[n+](-c3ccccc3)s2)cc1 ?
YES

What call does the record list for O=[N+]([O-])c1cccc(S(=O)(=O)Nc2cc(Br)c(O)c3ccccc23)c1 ?
YES

What call does the record list for Cc1ccc(-c2nc(Nc3ccccc3)s[n+]2CS(=O)(=O)c2ccccc2)cc1.[Cl-] ?
YES

----------
Target: Histone acetyltransferase RTT109 (Saccharomyces cerevisiae (strain ATCC 204508 / S288c) (Baker's yeast), UniProt Q07794)
Sequence (Q07794 whole entry): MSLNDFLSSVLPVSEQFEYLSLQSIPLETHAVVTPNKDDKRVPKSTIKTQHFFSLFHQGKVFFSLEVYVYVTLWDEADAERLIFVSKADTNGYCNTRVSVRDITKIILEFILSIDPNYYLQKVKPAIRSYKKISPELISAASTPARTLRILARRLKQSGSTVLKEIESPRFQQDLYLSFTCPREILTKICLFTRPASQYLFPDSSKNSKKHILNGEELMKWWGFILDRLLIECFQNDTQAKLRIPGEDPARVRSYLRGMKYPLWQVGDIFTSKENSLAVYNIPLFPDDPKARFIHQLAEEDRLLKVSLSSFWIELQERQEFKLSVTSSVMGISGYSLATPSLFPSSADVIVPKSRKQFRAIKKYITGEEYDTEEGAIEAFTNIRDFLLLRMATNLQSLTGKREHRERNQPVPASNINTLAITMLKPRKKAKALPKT
Assay: Inhibition of Vps75-stimulated recombinant Saccharomyces cerevisiae histone acetyltransferase Rtt109 using Asf1-dH3-H4 as substrate assessed as coenzyme A production after 45 mins by CPM based HTS assay
Conditions: read-out: IC50
The threshold is 3 µM. Values of IC50 beneath it are tagged criterion met; values meeting or exceeding it are tagged criterion not met.

>  <Compound>
O=S(=O)(Nc1cc(Sc2nc3ccccc3s2)c(O)c2ccccc12)c1ccccc1

>  <Classification>
criterion not met

$$$$

Strictly below 3 µM: is that where IC50 of O=[N+]([O-])c1ccc(Sc2nnnn2-c2ccccc2)c2nonc12 sits?
criterion met

Strictly below 3 µM: is that where IC50 of O=C(O)c1ccc(-n2nnnc2SC2=CS(=O)(=O)c3ccccc32)cc1 sits?
criterion not met

Strictly below 3 µM: is that where IC50 of Cc1ccc(N2C(=O)CC(Sc3nnc(-c4ccccc4O)o3)C2=O)cc1 (configuration not stated) sits?
criterion not met

Strictly below 3 µM: is that where IC50 of O=[N+]([O-])c1c(SCc2ccccc2)cc(Cl)c2nonc12 sits?
criterion met

Strictly below 3 µM: is that where IC50 of COc1ccc(Nc2nc(-c3ccc(OC)cc3)[n+](CS(=O)(=O)c3ccc(C)cc3)s2)cc1.O=S(=O)([O-])O sits?
criterion met

Strictly below 3 µM: is that where IC50 of O=[N+]([O-])c1ccccc1-c1nnc(SC2=CS(=O)(=O)c3ccccc32)o1 sits?
criterion not met

----------
target: Histone acetyltransferase GCN5 (Saccharomyces cerevisiae S288c) (UniProt Q03330); assay: Inhibition of yeast histone acetyltransferase Gcn5-Ada2-Ada3 complex using tetramer and [3H]-acetyl-CoA assessed as acetate incorporation […] by liquid scintillation counting in presence of 1 mM DTT
Sequence (Q03330 whole entry): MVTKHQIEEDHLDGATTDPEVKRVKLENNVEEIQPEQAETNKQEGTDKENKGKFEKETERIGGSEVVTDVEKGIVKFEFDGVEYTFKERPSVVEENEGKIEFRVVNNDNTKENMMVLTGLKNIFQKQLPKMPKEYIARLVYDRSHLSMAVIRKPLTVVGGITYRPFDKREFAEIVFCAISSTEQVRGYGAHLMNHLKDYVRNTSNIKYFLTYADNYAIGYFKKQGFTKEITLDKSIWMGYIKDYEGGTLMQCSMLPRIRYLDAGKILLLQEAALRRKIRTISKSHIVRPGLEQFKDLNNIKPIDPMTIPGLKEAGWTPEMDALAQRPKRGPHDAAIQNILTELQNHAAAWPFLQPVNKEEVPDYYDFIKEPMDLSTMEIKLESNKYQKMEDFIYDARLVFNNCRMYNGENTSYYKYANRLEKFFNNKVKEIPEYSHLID
Calls of active or inactive are those of the source.
Could you please pick one outcome from this set? Yes (active), No (inactive)

>  <Molecule>
COc1ccc(-c2nnc(SC3CC(=O)N(c4ccc(Cl)cc4)C3=O)[nH]2)cc1 (stereo not given)

>  <Classification>
Yes

$$$$
>  <Molecule>
O=S1(=O)C=C(Sc2nnc(-c3ccncc3)o2)c2ccccc21

>  <Classification>
Yes

$$$$
>  <Molecule>
O=S(=O)(Nc1cc(Sc2ncn[nH]2)c(O)c2ccccc12)c1ccc2ccccc2c1

>  <Classification>
Yes

$$$$

What call does the record list for CNc1nc(-c2ccccc2)[n+](-c2ccc(C)cc2)s1.[Br-] ?
Yes

What call does the record list for Cc1ccc(-c2nc(N)s[n+]2-c2ccccc2)cc1.[Br-] ?
Yes

What call does the record list for O=C(O)CSc1cc(NS(=O)(=O)c2ccc(Br)cc2)c2ccccc2c1O ?
Yes

What call does the record list for O=S1(=O)C=C(Sc2nnnn2-c2ccccc2)c2ccccc21 ?
Yes

What call does the record list for O=C(O)CSc1cc(NS(=O)(=O)c2ccc(C(=O)O)cc2)c2ccccc2c1O ?
Yes

What call does the record list for Cc1ccc(N2C(=O)CC(Sc3nncn3-c3ccccc3)C2=O)cc1 (stereo not given) ?
Yes

What call does the record list for OC(Cn1cncn1)(Cn1cncn1)c1ccc(F)cc1F ?
No

----------
biological target: UniProt Q03330; experiment: Inhibition of yeast histone acetyltransferase Gcn5-Ada2-Ada3 complex using tetramer and [3H]-acetyl-CoA assessed as acetate incorporation […] by liquid scintillation counting in presence of 1 mM DTT
Activity calls are given as the source filed them.
Recorded Endpoint: Activity

>  <Input Smiles>
O=[N+]([O-])c1cc(Br)c2nsnc2c1Sc1ncnc2[nH]cnc12

>  <Result>
Active

$$$$
>  <Input Smiles>
O=S(=O)(Nc1cc(Sc2nnnn2-c2ccccc2)c(O)c2ccccc12)c1ccccc1

>  <Result>
Active

$$$$
>  <Input Smiles>
CCN(CC)c1ccc2c(C)c(-c3ccc(N4C(=O)C=CC4=O)cc3)c(=O)oc2c1

>  <Result>
Active

$$$$

----------
target: Histone acetyltransferase RTT109 (Saccharomyces cerevisiae (strain ATCC 204508 / S288c) (Baker's yeast)); assay: Inhibition of Vps75-stimulated recombinant Saccharomyces cerevisiae histone acetyltransferase Rtt109 assessed as H3K56 acetylated product at […] after 45 mins by Slot bolt inhibiton assay
The source made the active and inactive calls.
Could you please pick one outcome from this set? active, inactive

>  <Compound>
COc1ccc(Nc2nc(-c3ccc(C)cc3)[n+](Cc3ccccc3)s2)cc1.[Cl-]

>  <Classification>
active

$$$$
>  <Compound>
CSc1nsc(SC2=CS(=O)(=O)c3ccccc32)n1

>  <Classification>
active

$$$$
>  <Compound>
O=S(=O)(C[n+]1sc(Nc2ccccc2)nc1-c1ccccc1)c1ccc2ccccc2c1.[Br-]

>  <Classification>
inactive

$$$$

What call does the record list for O=C1C=CC(=O)N1c1ccccc1 ?
active

What call does the record list for O=C1C=CC(=O)N1c1ccc(Br)cc1 ?
active

What call does the record list for O=S(=O)(Nc1cc(SCc2ccco2)c(O)c2ccccc12)c1ccccc1 ?
active
